Test system: ANGPTL3 gene
Protocol text: Example 7: serum HDL in mice
Type: in vivo
Design: key: ratio: (level/pre-treatment day -1 level) ÷ mean of D5W control group
Run conditions: Day 15; 0.5 mg/kg single SC injection day 1; female C57bl/6 mice, n=3; ratio to D5W control
In the oligonucleotide strings, read from the 5' end, every base follows the letter of its sugar. An asterisk marks phosphorothioate; unmarked linkages are phosphodiester. Other units and linkages are bracketed, terminal groups are in braces. A string of capitals states the bases alone. {NAG37} = tridentate N-acetyl-galactosamine targeting ligand, structure (NAG37)s; [invAb] = inverted abasic unit; m = 2'-O-methyl; f = 2'-fluoro
In this section we review reported Avg HDL, normalized to pre-treatment and control values for a set of substances.
Please give only the number in your answer, with no unit.

These solved cases illustrate the format of a correct answer.
substance="AD05418: RNAi agent duplex: antisense AM07159-AS, sense AM07158-SS (antisense mU*fU*mU*fGmAfAmUfUmAfAmUfGmUfCmCfAmUfGmGfG*mU; sense {NAG37}*[invAb]*mAmCmCmCmAmUmGmGfAfCfAmUmUmAmAmUmUmCmAmAmA*[invAb])" quantitative_result=0.857
substance="AD05488: RNAi agent duplex: antisense AM07235-AS, sense AM07234-SS (antisense mU*fA*mC*fUmGfAmUfCmAfAmAfUmAfUmGfUmUfGmAfG*mC; sense {NAG37}*[invAb]*mGmCmUmCmAmAmCmAfUfAfUmUmUmGmAmUmCmAmGmUmA*[invAb])" quantitative_result=0.793
substance="AD05775: RNAi agent duplex: antisense AM07235-AS, sense AM07608-SS (antisense UACUGAUCAAAUAUGUUGAGC; sense GCUCAACAUNUUUGAUCAGUA; (NAG37)s GalNAc ligand; RNAi agent antisense strand modified sequence; RNAi agent sense strand modified sequence; modified_base 10 n = 2′-O-methyl-2-aminoadenosine-3′-phosphate)" quantitative_result=0.757
substance="AD05308: RNAi agent duplex: antisense AM07003-AS, sense AM07002-SS (chain 1 mU*fG*mU*fUmGfAmAfUmUfAmAfUmGfUmCfCmAfUmGfG*mA; chain 2 {NAG37}*[invAb]*mUmCmCmAmUmGmGmAfCfAfUmUmAmAmUmUmCmAmAmCmA*[invAb])" quantitative_result=0.791

// next entry
Which measured Avg HDL, normalized to pre-treatment and control value corresponds to AD05777: RNAi agent duplex: antisense AM07235-AS, sense AM07610-SS (antisense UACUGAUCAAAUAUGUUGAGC; sense GCUCAACNUNUUUGAUCAGUA; (NAG37)s GalNAc ligand; RNAi agent antisense strand modified sequence; RNAi agent sense strand modified sequence; modified_base 8, 10 n = 2′-O-methyl-2-aminoadenosine-3′-phosphate) ? 0.768
